- PROTOCOL_TEXT: chemical genetic growth profiling, strain panel (AID 1159580);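 further: tested at 20 µM; growth read once vehicle control cultures reached saturation at 30 °C; 1 = growth at the plate median or of vehicle wells; lower values mean less growth of the strain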
- CONDITION_DETAILS: S. cerevisiae deletion strains, growth OD, locus YPL051W, strain arl3, stronger effect = lower value
In all, about 5,500 compounds went through this assay and about 2,000 (36%) were called active. Roughly 18% stayed inconclusive and do not appear here. This is one part of the list.
Field: normalized growth. Provide a value for each of the compounds that follow.
Enter a number only.

Incoming: Param item = CCC(CCC(C)[C@H]1CCC2C3CC=C4C[C@@H](O)CC[C@]4(C)C3CC[C@@]21C)C(C)C (stereo partly specified) ; retrieve measured normalized growth.
Outgoing: 1.04

Incoming: Now give it for CC(C)c1ccc2c(c1O)CC[C@H]1C3=C(CC[C@]21C)C(=O)OC3 too.
Outgoing: 0.932

Incoming: Now give it for COc1ccc(-c2cc(=O)c3c(O)c(OC)c(OC)c(OC)c3o2)cc1 too.
Outgoing: 0.981

Incoming: Now give it for Cc1cc2cc3c(C)cc(=O)oc3c(C)c2o1 too.
Outgoing: 0.982

Incoming: Now give it for CC(=O)OCC(=O)[C@@]1(O)CCC2C3CC[C@@H]4C[C@H](O)CC[C@]4(C)C3C(=O)C[C@@]21C (stereo partly specified) too.
Outgoing: 1.02

Incoming: Now give it for C=CCc1ccccc1OCC(O)CNC(C)C (stereo unspecified) too.
Outgoing: 1.01
